meta.source: ChEMBL document CHEMBL1126942

tested on: Pseudomonas aeruginosa; experiment: Tested in vitro for antibacterial activity against Pseudomonas aeruginosa (E-2); type: functional
readout: MIC (µg/mL)

Below: 2 compounds and their reported MIC.
- compound: "CN1CCN(c2c(F)cc3c(=O)c(C(=O)O)c4n5c3c2OCC5CS4)CC1.Cl (centres undefined)"
  number: 1.56
- compound: "CN1CCN(c2c(F)cc3c(=O)c(C(=O)O)c4n5c3c2SCC5CO4)CC1.Cl (centres undefined)"
  number: 60

(1) CN1CCN(c2c(F)cc3c(=O)c(C(=O)O)c4n5c3c2C(=O)CC5CS4)CC1.Cl (centres undefined)
(2) CN1CCN(c2c(F)cc3c(=O)c(C(=O)O)c4n5c3c2N(C)CC5CS4)CC1.Cl (centres undefined)
query: Hey, between 1 and 2 which has a smaller measured MIC? // respond with label for picked entry
result: 1
(1: 3.13 µg/mL, 2: 6.25 µg/mL)
